Would you mind telling me the reported normalised inhibition (eCFP-eYFP dual reporter) of each entry?
molecular target: RHOQ; test: reporter assay of Huesken 2005; details: siRNA; also: test concentration or dose not given here
Oligonucleotides are written 5' to 3', each unit as a sugar letter and its base; * is a phosphorothioate linkage, no mark a phosphodiester; rarer units and linkages stand in square brackets, end groups in braces. Plain capitals give the bases only. d = 2'-deoxy (DNA); r = 2'-OH (RNA)
Numbers only; they are read as %.

Ask: Note down normalised inhibition (eCFP-eYFP dual reporter) recorded for sense rUrGrGrArUrGrUrCrUrUrCrUrUrUrCrUrUrCrCdTdT / antisense rGrGrArArGrArArArGrArArGrArCrArUrCrCrAdAdA
Reply: 68.4

Ask: Please give the documented normalised inhibition (eCFP-eYFP dual reporter) of sense rCrUrUrArUrGrUrArUrGrCrUrCrArArArUrGrGdTdT / antisense rCrCrArUrUrUrGrArGrCrArUrArCrArUrArArGdGdC
Reply: 44

Ask: Provide normalised inhibition (eCFP-eYFP dual reporter) value for the following substance: sense rArArUrArUrArArGrCrArUrCrArCrCrUrUrCrCdTdT / antisense rGrGrArArGrGrUrGrArUrGrCrUrUrArUrArUrUdTdT
Reply: 51.8

Ask: Name the recorded normalised inhibition (eCFP-eYFP dual reporter) of the item sense rUrGrArArGrArGrUrGrGrArGrArGrArGrUrCrUdTdT / antisense rArGrArCrUrCrUrCrUrCrCrArCrUrCrUrUrCrAdAdT in your answer.
Reply: 70.7

Ask: Report normalised inhibition (eCFP-eYFP dual reporter), nothing else, for this substance: sense rUrGrArArArArUrGrArCrArGrCrCrUrUrArArAdTdT / antisense rUrUrUrArArGrGrCrUrGrUrCrArUrUrUrUrCrAdAdG
Reply: 78.8

Ask: Give normalised inhibition (eCFP-eYFP dual reporter) for the following substance: sense rCrCrUrUrArUrGrUrArUrGrCrUrCrArArArUrGdTdT / antisense rCrArUrUrUrGrArGrCrArUrArCrArUrArArGrGdCdC
Reply: 65.1

Ask: Using the record for sense rUrGrUrArUrGrUrGrArGrCrUrUrUrGrUrArGrAdTdT / antisense rUrCrUrArCrArArArGrCrUrCrArCrArUrArCrAdAdC , state its measured normalised inhibition (eCFP-eYFP dual reporter).
Reply: 75.3

Ask: Please give the documented normalised inhibition (eCFP-eYFP dual reporter) of sense rCrArGrArUrArArUrGrGrArUrGrCrArUrCrArGdTdT / antisense rCrUrGrArUrGrCrArUrCrCrArUrUrArUrCrUrGdAdT
Reply: 80.4

Ask: Query normalised inhibition (eCFP-eYFP dual reporter) for sense rUrUrGrArArArArUrGrArCrArGrCrCrUrUrArAdTdT / antisense rUrUrArArGrGrCrUrGrUrCrArUrUrUrUrCrArAdGdT
Reply: 87.1

Ask: Give reported normalised inhibition (eCFP-eYFP dual reporter) value for sense rCrUrGrUrGrGrArUrCrUrGrCrCrUrUrArUrUrGdTdT / antisense rCrArArUrArArGrGrCrArGrArUrCrCrArCrArGdCdA
Reply: 79

Ask: Output measured normalised inhibition (eCFP-eYFP dual reporter) for this item: sense rCrUrGrGrArUrGrArCrUrGrGrCrCrArGrGrArAdTdT / antisense rUrUrCrCrUrGrGrCrCrArGrUrCrArUrCrCrArGdTdA
Reply: 75.7

Ask: Identify normalised inhibition (eCFP-eYFP dual reporter) associated with the substance sense rArUrGrGrArArCrArCrUrArArArCrUrUrUrUrAdTdT / antisense rUrArArArArGrUrUrUrArGrUrGrUrUrCrCrArUdTdA
Reply: 82.1

Ask: Supply reported normalised inhibition (eCFP-eYFP dual reporter) belonging to this substance: sense rUrGrCrUrCrArUrArUrCrArGrUrCrArCrArArAdTdT / antisense rUrUrUrGrUrGrArCrUrGrArUrArUrGrArGrCrAdTdT
Reply: 83.6

Ask: Give me measured normalised inhibition (eCFP-eYFP dual reporter), please, for this substance: sense rCrArUrUrUrArArArCrUrUrGrCrUrGrUrUrGrCdTdT / antisense rGrCrArArCrArGrCrArArGrUrUrUrArArArUrGdTdA
Reply: 74.6

Ask: Please give measured normalised inhibition (eCFP-eYFP dual reporter) of the following entry: sense rArArArUrGrArCrArGrCrCrUrUrArArArUrGrCdTdT / antisense rGrCrArUrUrUrArArGrGrCrUrGrUrCrArUrUrUdTdC
Reply: 42.3

Ask: For sense rCrUrUrArUrUrUrArArUrUrUrUrGrGrUrCrUrGdTdT / antisense rCrArGrArCrCrArArArArUrUrArArArUrArArGdAdA , write its normalised inhibition (eCFP-eYFP dual reporter).
Reply: 52.2

Ask: Write down normalised inhibition (eCFP-eYFP dual reporter) measured for item sense rCrArUrGrCrArUrCrArGrArUrArArUrGrGrArUdTdT / antisense rArUrCrCrArUrUrArUrCrUrGrArUrGrCrArUrGdGdC
Reply: 72.3

Ask: Given sense rArCrArGrArUrUrGrGrGrUrArArUrGrGrArArCdTdT / antisense rGrUrUrCrCrArUrUrArCrCrCrArArUrCrUrGrUdGdC , respond with its normalised inhibition (eCFP-eYFP dual reporter).
Reply: 47.1

Ask: Please indicate normalised inhibition (eCFP-eYFP dual reporter) recorded for sense rCrArArArUrCrUrArGrGrArUrGrUrArCrUrGrUdTdT / antisense rArCrArGrUrArCrArUrCrCrUrArGrArUrUrUrGdTdG
Reply: 79.4

Ask: Give reported normalised inhibition (eCFP-eYFP dual reporter) value for sense rUrUrGrCrUrGrUrUrGrCrCrCrArArArUrUrArUdTdT / antisense rArUrArArUrUrUrGrGrGrCrArArCrArGrCrArAdGdT
Reply: 83.5

Ask: // fetch normalised inhibition (eCFP-eYFP dual reporter) given entry sense rCrArCrArUrUrArArArGrUrArUrCrArUrGrGrCdTdT / antisense rGrCrCrArUrGrArUrArCrUrUrUrArArUrGrUrGdAdA
Reply: 62.4

Ask: For sense rUrGrArArUrCrGrGrArCrArUrUrUrGrGrArUrGdTdT / antisense rCrArUrCrCrArArArUrGrUrCrCrGrArUrUrCrAdGdA , write its normalised inhibition (eCFP-eYFP dual reporter).
Reply: 38.9

Ask: Please give the documented normalised inhibition (eCFP-eYFP dual reporter) of sense rGrGrArUrGrUrCrUrUrCrUrUrUrCrUrUrCrCrAdTdT / antisense rUrGrGrArArGrArArArGrArArGrArCrArUrCrCdAdA
Reply: 83.2

Ask: Indicate its recorded normalised inhibition (eCFP-eYFP dual reporter); the substance in question is sense rArArUrGrCrUrCrArUrArUrCrArGrUrCrArCrAdTdT / antisense rUrGrUrGrArCrUrGrArUrArUrGrArGrCrArUrUdTdA
Reply: 76
